IC50 for assorted molecules
assayed.system: KRAS G12D (Homo sapiens, UniProt P01116, C118A/G12D)
Sequence (P01116 1-169 isoform P01116-2 G12D/C118A): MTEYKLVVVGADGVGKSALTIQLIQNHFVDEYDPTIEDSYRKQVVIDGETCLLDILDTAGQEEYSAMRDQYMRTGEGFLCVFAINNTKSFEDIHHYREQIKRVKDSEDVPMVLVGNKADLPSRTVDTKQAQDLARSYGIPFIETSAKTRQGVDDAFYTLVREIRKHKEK
assay.text: KRAS G12D Coupled Nucleotide Exchange Assay
conditions: GDP-bound KRAS G12D/C118A, 2 hours pre-incubation, SOS-mediated nucleotide exchange, AlphaScreen
The reply should contain only the number, in nM.

Reference set (10 entries):
>>> reported_measurement("CCc1c(F)ccc2cc(O)cc(-c3ncc4c(N5CCCC6(CCC(=O)O6)C5)nc(OC[C@@]56CCCN5C[C@H](F)C6)nc4c3F)c12 (single isomer, unassigned) [Example 65]")
42
>>> reported_measurement("CCc1c(F)ccc2cccc(-c3ncc4c(N5CCCC6(CNC(=O)O6)C5)nc(OC[C@@]56CCCN5C[C@H](F)C6)nc4c3F)c12 (single isomer, unassigned) [Example 63]")
2
>>> reported_measurement("CCc1c(F)ccc2cc(O)cc(-c3ncc4c(N5CCCC6(COC(=O)N6)C5)nc(OC[C@@]56CCCN5C[C@H](F)C6)nc4c3F)c12 (some centres unmarked) [Example 40]")
4
>>> reported_measurement("CCc1cccc2cc(O)cc(-c3ncc4c(N5CCCC6(CC(O)C6)C5)nc(OC[C@@]56CCCN5C[C@H](F)C6)nc4c3F)c12 (single isomer, unassigned) [Example 13]")
1
>>> reported_measurement("CCc1c(F)ccc2cc(O)cc(-c3ncc4c(N5CCCC6(C5)CC6(F)F)nc(OC[C@@]56CCCN5C[C@H](F)C6)nc4c3F)c12 (some centres unmarked) [Example 44]")
3
>>> reported_measurement("CCc1c(F)ccc2cc(O)cc(-c3ncc4c(N5CCCC6(CNC(=O)C6)C5)nc(OC[C@@]56CCCN5C[C@H](F)C6)nc4c3F)c12 (single isomer, unassigned) [Example 8]")
4
>>> reported_measurement("CCc1cccc2cc(O)cc(-c3ncc4c(N5CCCC6(CCO6)C5)nc(OC[C@@]56CCCN5C[C@H](F)C6)nc4c3F)c12 (single isomer, unassigned) [Example 23]")
3
>>> reported_measurement("CCc1c(F)ccc2cc(O)cc(-c3ncc4c(N5CCCC6(CNC(=O)C6)C5)nc(OC[C@@]56CCCN5C[C@H](F)C6)nc4c3F)c12 (single isomer, unassigned) [Example 7]")
8
>>> reported_measurement("Oc1cc(-c2ncc3c(N4CCCC5(CC(O)C5)C4)nc(OC[C@@]45CCCN4C[C@H](F)C5)nc3c2F)c2c(F)c(F)ccc2c1 (single isomer, unassigned) [Example 11]")
2
>>> reported_measurement("CCc1c(F)ccc2cc(O)cc(-c3ncc4c(N5CCCC6(COC(=O)O6)C5)nc(OC[C@@]56CCCN5C[C@H](F)C6)nc4c3F)c12 (single isomer, unassigned) [Example 68]")
11

In: Need IC50, item CCc1c(F)ccc2cc(O)cc(-c3ncc4c(N5CCCC6(CCC(=O)N6)C5)nc(OC[C@@]56CCCN5C[C@H](F)C6)nc4c3F)c12 (some centres unmarked) [Example 28]
Out: 5

----------
assayed.system: KRAS G12D (Homo sapiens, UniProt P01116, G12D)
Sequence (P01116 1-188 isoform P01116-2 G12D): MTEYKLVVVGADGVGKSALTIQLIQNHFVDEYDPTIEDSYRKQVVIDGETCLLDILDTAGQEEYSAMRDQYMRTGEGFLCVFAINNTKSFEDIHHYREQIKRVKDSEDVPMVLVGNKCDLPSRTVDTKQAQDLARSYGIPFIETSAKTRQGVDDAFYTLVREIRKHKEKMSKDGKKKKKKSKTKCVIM
assay.text: KRAS G12D TR-FRET Assay
conditions: His-tagged KRAS G12D, biotinylated KRPep-2d, read-out: KRAS G12D Binding IC50
IC50 for assorted compounds
The reply should contain only the number, in nM.

>>> reported_measurement("CCc1c(F)ccc2cc(O)cc(-c3ncc4c(N5CCCC6(COC6)C5)nc(OC[C@@]56CCCN5C[C@H](F)C6)nc4c3F)c12")
2

In: Need IC50, item CCc1c(F)ccc2cc(O)cc(-c3ncc4c(N5CCCC6(CCO6)C5)nc(OC[C@@]56CCCN5C[C@H](F)C6)nc4c3C)c12 (single isomer, unassigned) [Example 62]
Out: 68

In: And the next one, CCc1c(F)ccc2cc(O)cc(-c3ncc4c(N5CCCC6(CC(=O)N6)C5)nc(OC[C@@]56CCCN5C[C@H](F)C6)nc4c3F)c12 (single isomer, unassigned) [Example 9] ?
Out: 2

In: And the next one, CCc1c(F)ccc2cc(O)cc(-c3ncc4c(N5CCCC6(CC(=O)N6C)C5)nc(OC[C@@]56CCCN5C[C@H](F)C6)nc4c3F)c12 (some centres unmarked) ?
Out: 8

In: And the next one, CCc1c(F)ccc2cccc(-c3ncc4c(N5CCCC6(CNC(=O)O6)C5)nc(OC[C@@]56CCCN5C[C@H](F)C6)nc4c3F)c12 (single isomer, unassigned) [Example 63] ?
Out: 4

----------
assayed.system: KRAS G12D (Homo sapiens, UniProt P01116, G12D)
assay.text: KRAS G12D TR-FRET Assay
conditions: His-tagged KRAS G12D, biotinylated KRPep-2d, read-out: KRAS G12D Binding IC50
value.kind: IC50

Reference set (6 entries):
>>> reported_measurement("CCc1c(F)ccc2cc(O)cc(-c3ncc4c(N5CCCC6(CC(=O)N6)C5)nc(OC[C@@]56CCCN5C[C@H](F)C6)nc4c3F)c12 (single isomer, unassigned) [Example 10]")
"1 nM"
>>> reported_measurement("C#Cc1c(F)ccc2cc(O)cc(-c3ncc4c(N5CCCC6(CNC(=O)O6)C5)nc(OC[C@@]56CCCN5C[C@H](F)C6)nc4c3F)c12 (single isomer, unassigned)")
"1 nM"
>>> reported_measurement("CCc1c(F)ccc2cccc(-c3ncc4c(N5CCCC6(CNC(=O)C6)C5)nc(OC[C@@]56CCCN5C[C@H](F)C6)nc4c3F)c12 (some centres unmarked)")
"19 nM"
>>> reported_measurement("CCc1c(F)ccc2cc(O)cc(-c3ncc4c(N5CCCC6(CCOC6)C5)nc(OC[C@@]56CCCN5C[C@H](F)C6)nc4c3F)c12 (some centres unmarked)")
"8 nM"
>>> reported_measurement("CCc1cccc2cc(O)cc(-c3ncc4c(N5CCCC6(CC(O)C6)C5)nc(OC[C@@]56CCCN5C[C@H](F)C6)nc4c3F)c12 (single isomer, unassigned)")
"2 nM"
>>> reported_measurement("CCc1c(F)ccc2cc(O)cc(-c3ncc4c(N5CCC6(CC5)CNC(=O)O6)nc(OC[C@@]56CCCN5C[C@H](F)C6)nc4c3F)c12")
"19 nM"

Now examine the next entry.
In: Need IC50, item CCc1c(F)ccc2cc(O)cc(-c3ncc4c(N5CCCC6(CCN6)C5)nc(OC[C@@]56CCCN5C[C@H](F)C6)nc4c3F)c12 (some centres unmarked)
Out: 40 nM

----------
assayed.system: KRAS G12D (Homo sapiens, UniProt P01116, C118A/G12D)
assay.text: KRAS G12D Coupled Nucleotide Exchange Assay
conditions: GDP-bound KRAS G12D/C118A, 2 hours pre-incubation, SOS-mediated nucleotide exchange, AlphaScreen
pIC50: −log10 of the molar value.
Assign class by pIC50: not lower than 8 means true; lower than 8 means false.

>>> group_label("CCc1c(F)ccc2cc(O)cc(-c3ncc4c(N5CCCC6(CCC6O)C5)nc(OC[C@@]56CCCN5C[C@H](F)C6)nc4c3F)c12 (single isomer, unassigned) [Example 48]")
"false"
>>> group_label("CCc1c(F)ccc2cccc(-c3ncc4c(N5CCCC6(CNC6=O)C5)nc(OC[C@@]56CCCN5C[C@H](F)C6)nc4c3F)c12 (stereo partly drawn)")
"true"
>>> group_label("CCc1c(F)ccc2cc(O)cc(-c3ncc4c(N5CCOCC6(CC(=O)N6)C5)nc(OC[C@@]56CCCN5C[C@H](F)C6)nc4c3F)c12 (stereo partly drawn)")
"true"
>>> group_label("CCc1c(F)ccc2cc(O)cc(-c3ncc4c(N5CCOC6(CC6)C5)nc(OC[C@@]56CCCN5C[C@H](F)C6)nc4c3F)c12")
"true"

Consider now this further molecule.
In: Would you say Oc1cc(-c2ncc3c(N4CCCC5(CCO5)C4)nc(OC[C@@]45CCCN4C[C@H](F)C5)nc3c2F)c2c(Cl)cccc2c1 (single isomer, unassigned) shows pIC50 at minimum 8?
Out: true

----------
assayed.system: KRAS G12D (Homo sapiens, UniProt P01116, C118A/G12D)
assay.text: KRAS G12D Coupled Nucleotide Exchange Assay
conditions: GDP-bound KRAS G12D/C118A, 2 hours pre-incubation, SOS-mediated nucleotide exchange, AlphaScreen
log10(IC50) for assorted molecules
All values: base-10 log of IC50 in nM.

Reference set (4 entries):
>>> reported_measurement("CCc1c(F)ccc2cc(O)cc(-c3ncc4c(N5CCCC6(CCC(=O)O6)C5)nc(OC[C@@]56CCCN5C[C@H](F)C6)nc4c3F)c12 (single isomer, unassigned) [Example 66]")
0.00
>>> reported_measurement("Oc1cc(-c2ncc3c(N4CCCC5(CC(O)C5)C4)nc(OC[C@@]45CCCN4C[C@H](F)C5)nc3c2F)c2c(F)c(F)ccc2c1 (single isomer, unassigned) [Example 12]")
0.30
>>> reported_measurement("CCc1c(F)ccc2cc(O)cc(-c3ncc4c(N5CCCC6(CNC6=O)C5)nc(OC[C@@]56CCCN5C[C@H](F)C6)nc4c3F)c12 (single isomer, unassigned) [Example 46]")
1.81
>>> reported_measurement("CCc1c(F)ccc2cc(O)cc(-c3ncc4c(N5CCCC6(CCO6)C5)nc(OC[C@@]56CCCN5C[C@H](F)C6)nc4c3C)c12 (single isomer, unassigned) [Example 62]")
1.62

Now examine the next entry.
In: Lab note: need log10(IC50) for CCc1c(F)ccc2cc(O)cc(-c3ncc4c(N5CCC6(CC5)CNC(=O)O6)nc(OC[C@@]56CCCN5C[C@H](F)C6)nc4c3F)c12 [Example 41] on KRAS G12D (Homo sapiens, UniProt P01116, C118A/G12D), anyone have it?
Out: 1.00
